Entry source: paper PMC7066653

- Test Protocol: Aqueous solubility of ATXP and ATX at 25 °C, by HPLC
- Type: physicochemical
- Condition Summary: ultrapure water, 25 °C, water, thermodynamic from solid
Measured Metric: solubility at 1 h

Give the measured solubility at 1 h for `Oc1ccc(-c2cc(=S)ss2)cc1` 0.8 µg/mL
